Assay: yeast display, Sf9 membrane polyspecificity reagent, FACS + sequencing; frameworks hold sequencing errors
observable: polyreactivity (PSR sort gate)

Consider the worked cases shown below.
sequence_string=QVQLVESAGGLVQAGGSLRLSCAASGFTFRYYAMGWYRQAPGKERELVAAISWSGGRTYYADSVKWRLTISRDNANNTVYLQMNSLKPEDTADYYCAADGYQYFYGDFDYWGQGTQVTVSS reading="high polyreactivity"
sequence_string=QVQLVESGGGIVQAGGSLRLSCAASGTFVYYAMVMYRQPPGKERELVAGISDGSSTNYADSVKGRFTISRDNAKNTVYLQMNSLKPEDTAVYYCAKRYYSSGREHGYWGQGTQVTVSS reading="low polyreactivity"
sequence_string=QVQLVESGGGLVQAGGSLRLSCAASGGTFSKYAMGWYRQAPGKEREFVAAITVSGGGSYYADSVKGRFTISRDNAKNTVYLQMNSLKPEDTAVYYCAADLAWTASDYWGQGTQVTVSS reading="low polyreactivity"
sequence_string=QVQLVESGGGLDQAGGSLRLSCAASGFTFTAYDMGWYRQAPGKVRELVAAINWSGSRTYYADSVKGRFTISRDNAKNTVYLQMNSLKPEDTAVYYCNTATSKSSYLHYDYWGQGTQVTVSS reading="high polyreactivity"
sequence_string=QVQLVESGGGLVQAGGSLRLSCAASGSTFQIYAMGWYRQPPGKDRELVAANTSSSSTNYADSVKGRFTISRENAKNTVYLQMNSLKPEDTAVYYCAAAVSWRSNWYDYWGQGTQVTVSS reading="low polyreactivity"
sequence_string=QVQLVESGGGLVQAGGSLRLSCAATGSTIEANTMGWYRQAPGKERELVASITTSGGSTNYADSVKGRFTISRDNAKNTVYLQMNSLKPEDTAVYYCAVRSTYARWNWRTADSSRDYWGQGTQVTVSS reading="low polyreactivity"

Q: Note down polyreactivity (PSR sort gate) recorded for QVQLVESGGGLVQAGGSLRLSCAASGSIFDVYGMGWYRQAPGKERELVARITSAGNTDYADSVKGRFTISRDNAKNTVYLQRNSLKPEDTAVYYCARDYVWFYGDTDFYYYLFDYWGQGTQVTVSS
A: low polyreactivity

Q: Note down polyreactivity (PSR sort gate) recorded for QVQLVESGGGLVQAGGSLSLSCAASGGTFSRYGMGWYRQAPGKEREMVAAISRSGGSTYYADSVKWRFTISRDNAKNTVYLQMNSLKPEDTAVYYCAAKLPIPYTTGRYAAMDYWGQGTQVTVSS
A: high polyreactivity

Q: Note down polyreactivity (PSR sort gate) recorded for QVQLVESGGGLVQAGGSLRLSCAATGRTFRVYAIGWYRHAHAKEREFVATISVRGGSTYYADSVKGRFTISRDNAKNTVYLQMNSLKPEDTAVYYCAADSYPYVYALYDYWGQGTQVTVSS
A: low polyreactivity

Q: Note down polyreactivity (PSR sort gate) recorded for QVQLVESGGGLVQAGGSLRLSCAASGRIFAGNAMGWYRQAPGKERELVAAISNGGSTYYADSVKGRFTISRDNAKNTVYLQMNSLKPEDTAVYYCNARTRLRKYQYYYWGQGTQVTVSS
A: high polyreactivity

Q: Note down polyreactivity (PSR sort gate) recorded for QFQLVESGGGLVQAGGSLRLSCAASGFILWTYAMGWYRQAPGKERELVAAISTTGGSTYYADSVKGRFTISRDNAKNTVYCQMNSLKPEDTAVYYCAAQVGRGYEVYPVYKYGYWGQGTQVTVSS
A: high polyreactivity

Q: Note down polyreactivity (PSR sort gate) recorded for QVQLVESGGGLVQAGGSLRLSCAASGRIFGVNAMGWYRQAPGKERELVAAITRRGGSTYADSVKGRFTISRDNAKNTVYLQMNSLKPEDTAVYYCNAESYYGIFRYKYDYWGQGTQVTVSS
A: high polyreactivity

Q: Note down polyreactivity (PSR sort gate) recorded for QVQLVESGGGLVQAGGSLRLSCAASGSTFGAYTMGWYRQAPGKERELVAAISSDGSTYYADSVKGRFTISRDNAKNTVYLQMNSLKPEDTAVYYCNARYHFYGRADYSYYYLFDYWGQGTQVTVSS
A: low polyreactivity
